tested-on: UniProt:P00533
Sequence (P00533 25-1210): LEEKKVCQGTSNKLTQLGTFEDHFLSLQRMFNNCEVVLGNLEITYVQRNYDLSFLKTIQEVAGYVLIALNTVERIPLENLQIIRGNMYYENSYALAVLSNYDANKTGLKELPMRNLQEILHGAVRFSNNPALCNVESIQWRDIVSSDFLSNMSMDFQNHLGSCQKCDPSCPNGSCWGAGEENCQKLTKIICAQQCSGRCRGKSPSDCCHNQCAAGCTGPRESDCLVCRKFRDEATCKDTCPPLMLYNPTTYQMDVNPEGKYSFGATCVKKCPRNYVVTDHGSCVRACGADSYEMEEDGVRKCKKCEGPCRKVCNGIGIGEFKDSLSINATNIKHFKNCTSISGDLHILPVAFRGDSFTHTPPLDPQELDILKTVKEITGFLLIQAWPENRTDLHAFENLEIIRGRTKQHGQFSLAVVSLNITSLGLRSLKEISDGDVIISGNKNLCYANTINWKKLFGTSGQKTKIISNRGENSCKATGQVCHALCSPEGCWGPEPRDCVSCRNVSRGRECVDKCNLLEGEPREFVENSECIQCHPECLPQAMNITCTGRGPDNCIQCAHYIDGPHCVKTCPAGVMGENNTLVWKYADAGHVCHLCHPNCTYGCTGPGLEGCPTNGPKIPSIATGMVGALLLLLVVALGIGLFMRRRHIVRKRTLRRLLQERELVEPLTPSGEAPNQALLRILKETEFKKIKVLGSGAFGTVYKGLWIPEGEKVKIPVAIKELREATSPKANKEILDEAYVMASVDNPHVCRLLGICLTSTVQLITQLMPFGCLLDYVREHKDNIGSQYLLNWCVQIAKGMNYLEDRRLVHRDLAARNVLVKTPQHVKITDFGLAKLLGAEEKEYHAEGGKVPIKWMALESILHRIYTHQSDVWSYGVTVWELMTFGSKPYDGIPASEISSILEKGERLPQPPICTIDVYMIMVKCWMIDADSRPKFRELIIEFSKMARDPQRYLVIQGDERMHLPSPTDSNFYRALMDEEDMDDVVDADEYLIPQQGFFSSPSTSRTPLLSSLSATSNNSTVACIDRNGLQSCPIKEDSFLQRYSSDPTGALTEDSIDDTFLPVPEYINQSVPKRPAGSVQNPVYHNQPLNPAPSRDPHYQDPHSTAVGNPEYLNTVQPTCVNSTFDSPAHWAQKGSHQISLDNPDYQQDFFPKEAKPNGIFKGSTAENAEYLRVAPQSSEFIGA
experiment: Wild type EGFR kinase inhibition test (z-lyte)
Type: biochemical
test-settings: 10 μM ATP
Entries annotated with measured IC50
The reply should be a number in nM, with the unit left off.

[[record]]
molecule_smiles = "C=CC(=O)Nc1cc(Nc2nccc(-c3cnc4c(ccn4C)c3)n2)c(OC)cc1N(C)CCN1CCCC1"
assay_metric = "IC50"
measured_value = 22


# IC50 measured on UniProt:P00533 for item `C=CC(=O)Nc1cc(Nc2nccc(-c3cnc4c(ccn4C)c3)n2)c(OC)cc1N1CCC(N(C)C)CC1` = 61

# IC50 measured on UniProt:P00533 for item `C=CC(=O)Nc1cc(Nc2ncc(Cl)c(-c3cnc4c(ccn4C(C)C)c3)n2)c(OC)cc1N(C)CCN(C)C` = 14

# IC50 measured on UniProt:P00533 for item `C=CC(=O)Nc1cc(Nc2ncc(Cl)c(-c3cnc4c(c3)c(Cl)cn4C)n2)c(OC)cc1N(C)CCN(C)C` = 14

# IC50 measured on UniProt:P00533 for item `C=CC(=O)Nc1cc(Nc2nccc(-c3cnc4c(ccn4C)c3)n2)c(OC)cc1OCCN(C)C` = 8

# IC50 measured on UniProt:P00533 for item `C=CC(=O)Nc1cc(Nc2ncc(OC)c(-c3cnc4c(cnn4C)c3)n2)c(OC)cc1N1CCC(N(C)C)CC1` = 35

# IC50 measured on UniProt:P00533 for item `C=CC(=O)Nc1cc(Nc2nccc(-c3ccc4c(ccn4C)c3)n2)c(OC)cc1N(C)CCN(C)C` = 8
